# target-under-test: R172K IDH2 (Homo sapiens, UniProt P48735, R172K)
# Construct: made in house; host or cells: Sf21 insect cells (cell pellets prepared at Evotec)
# Sequence (P48735 40-452 R172K): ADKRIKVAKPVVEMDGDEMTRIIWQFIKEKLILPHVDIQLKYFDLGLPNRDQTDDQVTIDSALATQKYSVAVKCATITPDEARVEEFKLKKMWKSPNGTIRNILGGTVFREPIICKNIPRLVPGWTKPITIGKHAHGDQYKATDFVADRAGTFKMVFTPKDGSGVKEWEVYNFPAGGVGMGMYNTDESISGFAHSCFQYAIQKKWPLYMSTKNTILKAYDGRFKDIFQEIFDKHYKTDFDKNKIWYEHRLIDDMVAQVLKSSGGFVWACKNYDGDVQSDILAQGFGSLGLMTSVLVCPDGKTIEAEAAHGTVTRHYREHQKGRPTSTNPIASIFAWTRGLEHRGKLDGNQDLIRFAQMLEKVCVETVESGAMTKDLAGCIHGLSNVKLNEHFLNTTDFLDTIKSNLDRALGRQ
# test-summary: Absorbance assay, variant activity in the presence of equimolar 2OG (inhibition screen)
# Format: biochemical
# condition-info: 1.0 mM 2OG and 1.0 mM test compound, 0.03 μM R172K IDH2, 50 μM NADPH
Structures can show the parent of a compound that is named as a salt.
measured-attribute: activity [%] (%-substrate conversion after 20 min incubation) (%)

# compound, target-under-test, observed-value
measured = [
    ("CC(C)(C)CCC(CC(=O)C(=O)O)C(=O)O (racemic)", "R172K IDH2 (Homo sapiens, UniProt P48735, R172K)", 93),
    ("COC(=O)CC(C)C(=O)OC (racemic) [DL-dimethyl 2-methylsuccinate]", "R172K IDH2 (Homo sapiens, UniProt P48735, R172K)", 91),
    ("CCCCC(CC(=O)O)C(=O)C(=O)O (stereo not shown)", "R172K IDH2 (Homo sapiens, UniProt P48735, R172K)", 126),
    ("O=C(O)C(=O)c1cccc(C(=O)O)c1", "R172K IDH2 (Homo sapiens, UniProt P48735, R172K)", 93),
    ("O=C(O)CC(Cc1ccccc1)C(=O)O (racemic)", "R172K IDH2 (Homo sapiens, UniProt P48735, R172K)", 98),
    ("O=C(O)/C=C/C(=O)O", "R172K IDH2 (Homo sapiens, UniProt P48735, R172K)", 87),
]

a. CCOC(=O)/C=C/C(=O)O [mono-ethyl fumarate]
b. O=C(O)CNC(=O)C(=O)O [NOG, N-oxalylglycine, reference compound]
# input Please compare: a and b . Report which one has the smaller activity [%] (%-substrate conversion after 20 min incubation) value. Choose, then provide that item's label.
# output b

====

# target-under-test: R172K IDH2 (Homo sapiens, UniProt P48735, R172K)
# Construct: made in house; host or cells: Sf21 insect cells (cell pellets prepared at Evotec)
# test-summary: Absorbance assay, variant activity in the presence of equimolar 2OG (inhibition screen)
# Type: biochemical
Listed below: activity [%] (%-substrate conversion after 20 min incubation) values for each entry.
Respond numerically; units are % and should not be typed.

Examples with answers:
# molecule, observed-value
rows = [
    ("O=C(O)CC(C(=O)O)C(O)C(=O)O (racemic) [DL-isocitric acid]", 71),
    ("O=C(O)/C=C(/CC(=O)O)C(=O)O [cis-aconitic acid]", 99),
    ("O=C1CC(C(=O)O)C(C(=O)O)O1 (racemic) [DL-isocitric acid lactone]", 95),
]

Lab note: next molecule to report on.
# input Param readout = activity [%] (%-substrate conversion after 20 min incubation); param system = R172K IDH2 (Homo sapiens, UniProt P48735, R172K); param query = O=C(O)CC(O)(CC(=O)O)C(=O)O [DL-citric acid] ; response: value
# output 94

====

Documented activity [%] (%-substrate conversion after 20 min incubation) across a set of molecules
# target-under-test: R140Q IDH2 (Homo sapiens, UniProt P48735, R140Q)
# Construct: made in house; host or cells: Sf21 insect cells (cell pellets prepared at Evotec)
# Sequence (P48735 40-452 R140Q): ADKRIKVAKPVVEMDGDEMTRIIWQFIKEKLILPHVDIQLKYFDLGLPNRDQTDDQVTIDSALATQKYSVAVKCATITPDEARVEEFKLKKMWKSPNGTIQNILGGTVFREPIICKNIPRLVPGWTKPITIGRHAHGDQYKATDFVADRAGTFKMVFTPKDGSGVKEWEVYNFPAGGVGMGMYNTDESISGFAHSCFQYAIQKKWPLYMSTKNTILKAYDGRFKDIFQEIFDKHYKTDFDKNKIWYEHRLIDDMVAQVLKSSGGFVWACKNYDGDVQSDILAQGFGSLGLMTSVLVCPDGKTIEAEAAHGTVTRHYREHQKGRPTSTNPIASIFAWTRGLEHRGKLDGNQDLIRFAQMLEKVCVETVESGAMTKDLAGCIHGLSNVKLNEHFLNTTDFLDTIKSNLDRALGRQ
# test-summary: Absorbance assay (NADPH consumption), substrate turnover in the absence of 2OG
# Assay type: biochemical
# condition-info: no 2OG; 6.0 mM test compound, 0.03 μM R140Q IDH2, 50 μM NADPH; 2OG = 100
Structures can show the parent of a compound that is named as a salt.

Use the examples below as a reference point.
# molecule, target-under-test, observed-value
records = [
    ("O=C(O)CC(=O)C(=O)O [oxaloacetic acid]", "R140Q IDH2 (Homo sapiens, UniProt P48735, R140Q)", "< 10%"),
    ("O=C(O)CCC(O)C(=O)O (racemic) [DL-2-hydroglutaric acid]", "R140Q IDH2 (Homo sapiens, UniProt P48735, R140Q)", "< 10%"),
    ("O=C(O)C(=O)CC(O)C(=O)O (racemic) [DL-4-hydroxy-2-oxoglutaric acid]", "R140Q IDH2 (Homo sapiens, UniProt P48735, R140Q)", "27 ± 3%"),
]

# input Give R140Q IDH2 (Homo sapiens, UniProt P48735, R140Q) activity [%] (%-substrate conversion after 20 min incubation) for COC(=O)CC(C)C(=O)OC (racemic) [DL-dimethyl 2-methylsuccinate]
# output < 10%

# input Now try CCOC(=O)/C=C/C(=O)O [mono-ethyl fumarate] .
# output < 10%

# input Again, but for O=C(O)C(=O)C(=O)O [ketomalonic acid]
# output < 10%

====

# target-under-test: R140Q IDH2 (Homo sapiens, UniProt P48735, R140Q)
# Construct: made in house; host or cells: Sf21 insect cells (cell pellets prepared at Evotec)
# test-summary: Absorbance assay, variant activity in the presence of equimolar 2OG (inhibition screen)
# Assay type: biochemical
# condition-info: 6.0 mM 2OG and 6.0 mM test compound, 0.03 μM R140Q IDH2, 50 μM NADPH
measured-attribute: activity [%] (%-substrate conversion after 20 min incubation) (%)

a. CC(C)(C)CCC(CC(=O)C(=O)O)C(=O)O (racemic)
b. O=C(O)CC(Cc1ccc(F)cc1)C(=O)C(=O)O (racemic)
# input Of a and b , which one carries the higher reported activity [%] (%-substrate conversion after 20 min incubation)? Give the label of your selection.
# output b
(b: 516%, a: 119%)

A. CCC(CC(=O)C(=O)O)C(=O)O (racemic)
B. O=C(O)C(=O)CC(Cc1ccc2ccccc2c1)C(=O)O (racemic)
# input Between the two listed entries A and B , which has its activity [%] (%-substrate conversion after 20 min incubation) at the higher number? Bench note: the answer is the label of the chosen record.
# output A
(A: 117%, B: 73%)

A. O=C(O)CC(Cc1ccccc1)C(=O)O (racemic)
B. CCCC(CC(=O)O)C(=O)C(=O)O (racemic)
# input Which gives the smaller activity [%] (%-substrate conversion after 20 min incubation) number: A or B ? Pick one and reply with its label.
# output A

====

# target-under-test: R140Q IDH2 (Homo sapiens, UniProt P48735, R140Q)
# Construct: made in house; host or cells: Sf21 insect cells (cell pellets prepared at Evotec)
# test-summary: Absorbance assay, IC50 determination
# Type: biochemical
# condition-info: 6.0 mM 2OG, 0.03 μM enzyme, 50 μM NADPH
measured-attribute: IC50

# input Given CC1(C)c2ccccc2-c2ccc(CC(CC(=O)O)C(=O)C(=O)O)cc21 (racemic) [compound 11] , state its recorded IC50.
# output ~1650 µM

====

# target-under-test: R132H IDH1 (Homo sapiens, UniProt O75874, R132H)
# Sequence (O75874 whole entry R132H): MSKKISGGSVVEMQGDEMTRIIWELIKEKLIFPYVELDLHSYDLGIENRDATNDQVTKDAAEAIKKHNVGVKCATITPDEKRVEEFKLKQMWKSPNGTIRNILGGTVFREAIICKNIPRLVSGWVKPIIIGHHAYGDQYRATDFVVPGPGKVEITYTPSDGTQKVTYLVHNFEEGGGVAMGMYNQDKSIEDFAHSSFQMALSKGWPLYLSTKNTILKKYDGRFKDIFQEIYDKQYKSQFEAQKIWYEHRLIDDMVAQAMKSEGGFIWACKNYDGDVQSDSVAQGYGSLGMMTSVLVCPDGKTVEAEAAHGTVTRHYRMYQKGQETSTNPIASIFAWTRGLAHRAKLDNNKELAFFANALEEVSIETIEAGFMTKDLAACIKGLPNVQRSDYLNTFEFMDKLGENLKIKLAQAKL
# test-summary: Absorbance assay, variant activity in the presence of equimolar 2OG (inhibition screen)
# Type: biochemical
# Parameters: made in house; host or cells: Escherichia coli BL21(DE3) pLyS
# condition-info: […] 2OG and […] test compound, 0.03 μM R132H IDH1, 50 μM NADPH
measured-attribute: activity [%] (%-substrate conversion after 20 min incubation) (%)

Consider the reported activity [%] (%-substrate conversion after 20 min incubation) for these compounds:
# compound, target-under-test, unit-name, observed-value
records = [
    ("O=C(O)CC(=O)O", "R132H IDH1 (Homo sapiens, UniProt O75874, R132H)", "%", 103),
    ("CC(CC(=O)C(=O)O)C(=O)O (stereo not drawn)", "R132H IDH1 (Homo sapiens, UniProt O75874, R132H)", "%", 161),
    ("N[C@@H](CCCC(=O)O)C(=O)O", "R132H IDH1 (Homo sapiens, UniProt O75874, R132H)", "%", 104),
]

P. C[C@@](O)(CC(=O)O)C(=O)O [(R)-citramalic acid]
Q. CC(C)(C)CCC(CC(=O)O)C(=O)C(=O)O (racemic)
R. O=C(O)C(=O)CS
# input List these items ordered by activity [%] (%-substrate conversion after 20 min incubation), big to small. Your reply should list the labels following the order given in the request.
# output Q, P, R

====

# target-under-test: WT IDH2 (Homo sapiens, UniProt P48735)
# Construct: made in house; host or cells: Sf21 insect cells (cell pellets prepared at Evotec)
# Sequence (P48735 40-452): as the sequence (P48735 40-452 R140Q) above, with Q101R counted along it
# test-summary: Absorbance assay, WT activity in the presence of equimolar DL-isocitrate (inhibition)
# Assay type: biochemical
# condition-info: […] isocitrate and […] test compound, 75 μM NADP+, 2.0 nM WT IDH2
measured-attribute: activity [%] (%-substrate conversion after 20 min incubation) (%)

# molecule, target-under-test, observed-value
records = [
    ("CC(=O)C(=O)O", "WT IDH2 (Homo sapiens, UniProt P48735)", 97),
    ("C=C(CC(=O)O)C(=O)O", "WT IDH2 (Homo sapiens, UniProt P48735)", 99),
    ("CCCCC(CC(=O)O)C(=O)C(=O)O (stereo not shown)", "WT IDH2 (Homo sapiens, UniProt P48735)", 98),
    ("O=C(O)CNC(=O)C(=O)O [NOG, N-oxalylglycine, reference compound]", "WT IDH2 (Homo sapiens, UniProt P48735)", 93),
    ("CCC(CC(=O)C(=O)O)C(=O)O (racemic)", "WT IDH2 (Homo sapiens, UniProt P48735)", 98),
    ("CCCCC(CC(=O)C(=O)O)C(=O)O (racemic)", "WT IDH2 (Homo sapiens, UniProt P48735)", 100),
    ("COc1ccc(CC(CC(=O)O)C(=O)C(=O)O)cc1 (racemic)", "WT IDH2 (Homo sapiens, UniProt P48735)", 98),
    ("O=C(O)C(=O)CC(O)C(=O)O (racemic) [DL-4-hydroxy-2-oxoglutaric acid]", "WT IDH2 (Homo sapiens, UniProt P48735)", 87),
    ("O=C(O)C(=O)C1C2C=CC(C2)C1C(=O)O (racemic)", "WT IDH2 (Homo sapiens, UniProt P48735)", 99),
    ("CC(O)C(=O)O (racemic)", "WT IDH2 (Homo sapiens, UniProt P48735)", 95),
]
